- assay.procedure: Cytotoxicity against human hTERT-BJ cells assessed as cell viability at 5 uM incubated for 48 hrs by MTT based colorimetric assay
- Format: toxicity
- measurement.context: read-out: Activity
measure: viability at 48 h, 5 µM (%)

query_smiles=Cc1ccc(Cn2cc(C(=O)NCCOCCO)c(=O)c3cc(C(=O)/C=C/c4ccc([N+](=O)[O-])o4)ccc32)cc1 measure="viability at 48 h, 5 µM" unit_abbreviation=% recorded_measurement=88

---

- assay.procedure: Cytotoxicity against African green monkey Vero cells assessed as cell viability at 10 uM incubated for 48 hrs by MTT based colorimetric assay
- Type: toxicity
- measurement.context: chlorocebus sabaeus, read-out: Activity
measure: viability at 48 h, 10 µM

query_smiles=Cc1ccc(Cn2cc(C(=O)NCCOCCO)c(=O)c3cc(C(=O)/C=C/c4ccc([N+](=O)[O-])o4)ccc32)cc1 recorded_measurement=6%

---

- assay.procedure: Cytotoxicity against African green monkey Vero cells assessed as reduction in cell viability incubated for 48 hrs by MTT based colorimetric assay
- Assay type: toxicity
- measurement.context: chlorocebus sabaeus
measure: CC50 at 48 h (µM)

query_smiles=Cc1ccc(Cn2cc(C(=O)NCCOCCO)c(=O)c3cc(C(=O)/C=C/c4ccc([N+](=O)[O-])o4)ccc32)cc1 unit_abbreviation=µM recorded_measurement=3.4

# credit: ChEMBL document CHEMBL5143512
